compounds and their reported IC50
target: DR1 (DRB1*0101) (Homo sapiens, UniProt P01903+P01911, A100R/D57E/F55L/F60I/F76Y/I96L/L162R/M171V/P40L/Q125E/R42F/V115G/Y59C); experiment: biochemical; assay type: binding
parameter_measured: IC50 (nM)

* CC[C@H](C)[C@H](NC(=O)[C@H](C)NC(=O)[C@@H](NC(=O)[C@@H](NC(=O)[C@H](CC(N)=O)NC(=O)[C@H](CC(C)C)NC(=O)[C@H](Cc1ccccc1)NC(=O)[C@H](CCCCN)NC(=O)[C@@H](NC(=O)[C@H](CCCNC(=N)N)NC(=O)[C@H](CCC(N)=O)NC(=O)[C@H](CCCCN)NC(=O)[C@@H](N)CCC(=O)O)[C@@H](C)O)[C@@H](C)O)C(C)C)C(=O)N1CCC[C@H]1C(=O)N[C@@H](CC(=O)O)C(=O)O [Peptide 1601.19] | 61
* CC[C@H](C)[C@H](NC(=O)[C@H](Cc1c[nH]cn1)NC(=O)[C@H](C)NC(=O)[C@H](Cc1ccc(O)cc1)NC(=O)[C@H](CC(C)C)NC(=O)[C@@H](NC(=O)[C@H](Cc1ccccc1)NC(=O)[C@@H]1CCCN1C(=O)[C@H](CCC(N)=O)NC(=O)[C@@H](NC(=O)[C@H](CC(C)C)NC(=O)[C@@H](NC(=O)[C@H](CCCCN)NC(=O)[C@@H](N)Cc1ccccc1)[C@@H](C)O)[C@@H](C)CC)[C@@H](C)CC)C(=O)N[C@@H](CCC(N)=O)C(=O)O [Peptide 89.0025] | 27
* CC(C)[C@H](NC(=O)[C@H](CCC(=O)O)NC(=O)[C@H](Cc1c[nH]c2ccccc12)NC(=O)[C@@H](NC(=O)CNC(=O)[C@@H](NC(=O)[C@H](CC(N)=O)NC(=O)CNC(=O)[C@H](Cc1ccc(O)cc1)NC(=O)[C@H](CCCCN)NC(=O)[C@@H](N)CCC(=O)O)[C@@H](C)O)[C@@H](C)O)C(=O)N[C@@H](Cc1c[nH]cn1)C(=O)N[C@@H](Cc1ccccc1)C(=O)NCC(=O)N[C@@H](CC(N)=O)C(=O)O [Peptide 1601.11] | 505
* CC(C)C[C@H](NC(=O)[C@H](CCC(N)=O)NC(=O)[C@H](CCCCN)NC(=O)[C@@H](NC(=O)[C@H](CC(C)C)NC(=O)[C@H](CCC(N)=O)NC(=O)[C@@H](NC(=O)[C@H](C)NC(=O)[C@H](CO)NC(=O)[C@@H](NC(=O)[C@@H](NC(=O)[C@H](CC(=O)O)NC(=O)[C@H](CC(=O)O)NC(=O)[C@@H](N)CO)[C@@H](C)O)C(C)C)[C@@H](C)O)C(C)C)C(=O)N[C@@H](CCC(N)=O)C(=O)O [Peptide 1601.13] | 7240

* * *

Each entry below carries its recorded IC50.
biological target: DRB4*0101 (Homo sapiens, UniProt P01903+P13762, G164S); assay: biochemical; format: binding
No end group written: not given here.
parameter_measured: IC50 (nM)

- DHDITDDSDIAYKYA [Peptide 90.0117]: 577
- TVEVQFDGDICNTMH [Peptide 90.0167]: 235
- VEFMSFLTALKRFLQ [Peptide 89.0015]: 42
- PMAVSKAKACQAIEL [Peptide 90.0013]: 1590
- LKLFLKGVPKKNCIL [Peptide 89.0054]: 619
- VHEGIRTYFVQFKDD [Peptide 1601.05]: 1800
- VMFLRYQGVEFMSFL [Peptide 89.0014]: 13
- ILLYGAANTGKSLFG [Peptide 89.0018]: 5060
- FAGIVTKLPTANNTT [Peptide 89.0175]: 1200
- SNEVSSPEIIRQHLA [Peptide 1601.06]: 13
- AFQVIELQMALETLN [Peptide 90.0024]: 11
- QMFLGTVKIPPTVQI [Peptide 89.0188]: 13
- GGDWKQIVMFLRYQG [Peptide 89.0013]: 7.9
- LVQLKCPPLLLTSNT [Peptide 89.0077]: 307
- ACSWGMVVLLLVRYK [Peptide 89.0004]: 1520
- GIVEQTTTSITSLYQ [Peptide 9000.0054]: 2300
- QQTVCREGVKRRLIL [Peptide 90.0129]: 11
- GRVNTHVHNPLLCSS [Peptide 1601.34]: 5980
- WKAVRHENVLYYKAR [Peptide 90.0230]: 189
- KSLFGMSLMKFLQGS [Peptide 89.0020]: 449
- IVHLKGDPNSLKCLR [Peptide 90.0255]: 1590
- CSAIEVQIALESLST [Peptide 90.0018]: 29
- QKCFKKKGITVTVQY [Peptide 90.0026]: 1310
- HWKLIRMECAIMYTA [Peptide 90.0021]: 161
- DYVLDLQPEATDLHC [Peptide 1543.10]: 69
- NTTPIIHLKGDKNSL [Peptide 1601.37]: 75
- TELNTSLQDIEITCV [Peptide 1543.34]: 922
- LKVLIKQHSLYTHLQ [Peptide 89.0061]: 11
- EIYIIEETTCTLVAG [Peptide 90.0251]: 1100
- LKEFLKGTPKKNCIL [Peptide 89.0086]: 2410
- DPRWPYLHSRLVVFH [Peptide 89.0113]: 98
- FQVIELQMALETLNA [Peptide 90.0025]: 15
- RVCLLFYSKVRKYRY [Peptide 1543.54]: 7740
- NCILLYGAANTGKSL [Peptide 89.0017]: 525
- FIHFIQGAVISFVNS [Peptide 89.0036]: 130
- DIAYKYAQLADVNSN [Peptide 89.0108]: 295
- HQVVPPMAVSKAKAC [Peptide 90.0012]: 645
- ITFLGALKSFLKGTP [Peptide 89.0034]: 1500
- RREVYDFAFRDLCIV [Peptide 1543.25]: 2460
- EVHVGGQVIVCPASV [Peptide 90.0015]: 389
